compounds and their reported Number of Gigasomes Produced
- Tested on: cardiomyocytic cell line derived from human ventricular heart tissue
- protocolText: Small molecule compound screen of gigasome production in cardiomyocytic monocultures
- runParameters: Table 22; dose 10 nM; cardiomyocytes, 24 hours
Where a name gives a salt, the structure may show the parent alone. Peptide text beside a SMILES is read from it. * marks the point of attachment. Cbz = O=C(OCc1ccccc1)*

compound: CC(N)=NCc1cccc(CN)c1.Cl.Cl [1400W dihydrochloride]
Number of Gigasomes Produced: 150-175
//
compound: NC(=O)N1c2ccccc2C=Cc2ccccc21 [Carbamazepine]
Number of Gigasomes Produced: 200-225
//
compound: COc1ccc(S(=O)(=O)N(CCO)c2ccccc2CN(C)C/C=C/c2ccc(Cl)cc2)cc1 [KN-93, reference compound]
Number of Gigasomes Produced: 225-250
//
compound: CC(=O)O[C@H]1C(=O)[C@@]2(C)[C@H]([C@H](OC(=O)c3ccccc3)[C@]3(O)C[C@H](OC(=O)[C@H](O)[C@@H](NC(=O)c4ccccc4)c4ccccc4)C(C)=C1C3(C)C)[C@]1(OC(C)=O)CO[C@@H]1C[C@@H]2O
Number of Gigasomes Produced: 150-175
//
compound: CC(C)C[C@@H](C=O)NC(=O)[C@H](CC(C)C)NC(=O)[C@H](CC(C)C)NC(=O)OCc1ccccc1 [MG-132, reference compound] (Cbz-Leu-Leu-Leu-aldehyde)
Number of Gigasomes Produced: 150-175
//
compound: C[C@H]1CCC/C=C/[C@@H]2C[C@H](O)C[C@H]2[C@H](O)/C=C/C(=O)O1
Number of Gigasomes Produced: 250-275
//
compound: C[C@H](NC(=O)Cc1cc(F)cc(F)c1)C(=O)N[C@H](C(=O)OC(C)(C)C)c1ccccc1
Number of Gigasomes Produced: 200-225
//
compound: NC(=O)C1CCCc2c1[nH]c1ccc(Cl)cc21 (centres unmarked)
Number of Gigasomes Produced: 150-175
//
compound: COc1cc(C(C)=O)ccc1O
Number of Gigasomes Produced: 150-175
//
compound: O=C(Nc1ccncc1)c1cc([N+](=O)[O-])ccc1Cl
Number of Gigasomes Produced: 150-175
//
compound: CC[C@@]1([C@@H]2O[C@@H]([C@H]3O[C@@](O)(CO)[C@H](C)C[C@@H]3C)C[C@@H]2C)CC[C@H]([C@]2(C)CC[C@]3(C[C@H](O)[C@@H](C)[C@@H]([C@@H](C)[C@@H](OC)[C@H](C)C(=O)O)O3)O2)O1 [Monensin sodium salt]
Number of Gigasomes Produced: 150-175

---

- Tested on: cardiomyocytic cell line derived from human ventricular heart tissue
- protocolText: Cell viability in cardiomyocyte compound screen (CellTiter-Glo)
- Format: cell-based
- runParameters: human, 24 h, 10 nM
Peptide text beside a SMILES is read from it. * marks the point of attachment. Cbz = O=C(OCc1ccccc1)*

compound: COc1cc(O)c2c(c1)oc(=O)c1c3cc(O)c(O)cc3oc21 [Wedelolactone, reference compound]
prefixOperator: =
Viability (%): 100.0
--
compound: CC(C)C[C@@H](C=O)NC(=O)[C@H](CC(C)C)NC(=O)[C@H](CC(C)C)NC(=O)OCc1ccccc1 [MG-132, reference compound] (Cbz-Leu-Leu-Leu-aldehyde)
prefixOperator: =
Viability (%): 100
--
compound: CC(=O)O[C@H]1C(=O)[C@@]2(C)[C@H]([C@H](OC(=O)c3ccccc3)[C@]3(O)C[C@H](OC(=O)[C@H](O)[C@@H](NC(=O)c4ccccc4)c4ccccc4)C(C)=C1C3(C)C)[C@]1(OC(C)=O)CO[C@@H]1C[C@@H]2O
prefixOperator: >
Viability (%): 75
--
compound: NC(=O)N1c2ccccc2C=Cc2ccccc21 [Carbamazepine]
prefixOperator: >
Viability (%): 75
--
compound: COc1cc(C(C)=O)ccc1O
prefixOperator: >
Viability (%): 75
--
compound: O=c1ncn2nc(Sc3ccc(F)cc3F)ccc2c1-c1c(Cl)cccc1Cl
prefixOperator: =
Viability (%): 100.0

---

- Tested on: neuronal cell line derived from human neuroblastoma
- runParameters: human, 24 h, 1000 nM

molecule: CC(=O)Nc1cccc(-n2c(=O)n(C3CC3)c(=O)c3c(Nc4ccc(I)cc4F)n(C)c(=O)c(C)c32)c1 [Trametinib, reference compound]
prefixOperator: >
Viability [%]: 75
--
molecule: CC1=NS(=O)(=O)c2cc(Cl)ccc2N1 [Diazoxide]
prefixOperator: =
Viability [%]: 100
--
molecule: C/C=C1/[C@H](O[C@@H]2O[C@H](CO)[C@@H](O)[C@H](O)[C@H]2O)OC=C(C(=O)OC)[C@H]1CC(=O)OCCc1ccc(O)c(O)c1 [Oleuropein, reference compound]
prefixOperator: >
Viability [%]: 75
--
molecule: Cc1ncc(-c2ccnc(Nc3ccc(S(C)(=O)=O)cc3)n2)n1C(C)C
prefixOperator: =
Viability [%]: 100

---

- System: neuronal cell line derived from human neuroblastoma
- runParameters: neuronal cells, dose 1000 nM, 24 hours

compound: COC(=O)c1ccccc1NC(=O)c1ccc(F)cc1 [EXO1, reference compound]
assayTarget: neuronal cell line derived from human neuroblastoma
Viability: 100%
--
compound: CC1=C(O)C(=O)C=C2C1=CC=C1[C@@]2(C)CC[C@@]2(C)[C@@H]3C[C@](C)(C(=O)O)CC[C@]3(C)CC[C@]12C [Tripterin, reference compound]
assayTarget: neuronal cell line derived from human neuroblastoma
Viability: >75%
--
compound: CO/C1=C\C(C)=C\[C@@H](C)[C@@H](O)[C@@H](C)C/C(C)=C/C=C/[C@H](OC)[C@@H]([C@@H](C)[C@@H](O)[C@H](C)[C@@]2(O)C[C@@H](O)[C@H](C)[C@@H](C(C)C)O2)OC1=O [Bafilomycin A1, reference compound]
assayTarget: neuronal cell line derived from human neuroblastoma
Viability: >75%
--
compound: O=C(Nc1ccc(O)c(C(=O)O)c1)c1cccc(NC(=O)c2ccco2)c1
assayTarget: neuronal cell line derived from human neuroblastoma
Viability: 100%
--
compound: O=C(c1ccc2nccnc2c1)N1CCCCC1
assayTarget: neuronal cell line derived from human neuroblastoma
Viability: 100%
--
compound: N#C/C(=C\c1cn(-c2ccccc2)c2ccccc12)C(=O)O [UK-5099, reference compound]
assayTarget: neuronal cell line derived from human neuroblastoma
Viability: 100%
--
compound: Cn1cnc(N)c2ncnc1-2
assayTarget: neuronal cell line derived from human neuroblastoma
Viability: 100%
--
compound: CN1C(=N)N[C@](C)(c2cc(NC(=O)c3ccc(F)cn3)ccc2F)CS1(=O)=O
assayTarget: neuronal cell line derived from human neuroblastoma
Viability: 100%
--
compound: O=c1ncn2nc(Sc3ccc(F)cc3F)ccc2c1-c1c(Cl)cccc1Cl
assayTarget: neuronal cell line derived from human neuroblastoma
Viability: 100%
--
compound: CN[C@H](CC(=O)O)C(=O)O [NMDA, reference compound]
assayTarget: neuronal cell line derived from human neuroblastoma
Viability: 100%
--
compound: CC(C)[C@H](O)C(=O)N[C@@H](C)C(=O)N[C@@H]1C(=O)N(C)CCc2ccccc21
assayTarget: neuronal cell line derived from human neuroblastoma
Viability: 100%
--
compound: CC[C@H](CO)Nc1nc(NCc2ccccc2)c2ncn(C(C)C)c2n1
assayTarget: neuronal cell line derived from human neuroblastoma
Viability: 100%
--
compound: CCN(CCO)CCCC(C)Nc1ccnc2cc(Cl)ccc12 (centres unmarked) [Hydroxychloroquine]
assayTarget: neuronal cell line derived from human neuroblastoma
Viability: >75%
--
compound: CC(/C=C/C(=O)NO)=C\[C@@H](C)C(=O)c1ccc(N(C)C)cc1
assayTarget: neuronal cell line derived from human neuroblastoma
Viability: 50-75%

---

- Test system: cardiomyocytic cell line derived from human ventricular heart tissue
- protocolText: Small molecule compound screen of gigasome production in cardiomyocytic monocultures;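 note: gigasomes shed into the culture medium were imaged by confocal microscopy and counted as round particles lacking nuclear signal, extrapolated to the whole well, fold change is relative to DMSO vehicle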
- runParameters: Table 23 (down-regulators); dose 10000 nM; cardiomyocytes
Where a name gives a salt, the structure may show the parent alone.
Measured Number of Gigasomes Produced values are reported for all entries that follow.
reportedProperty: Number of Gigasomes Produced

molecule: O=C1CSC(c2ccccc2Cl)c2cc(Cl)ccc2N1 (stereo not drawn) [CGP37157, reference compound]
reportedProperty: Number of Gigasomes Produced
assayValue: 50-75
--
molecule: CN(C)CCCSC(=N)N [Dimaprit dihydrochloride]
reportedProperty: Number of Gigasomes Produced
assayValue: 50-75
--
molecule: O=C(Oc1cccc(F)c1OC(=O)c1cccc(O)c1)c1cccc(O)c1 [WZB117, reference compound]
reportedProperty: Number of Gigasomes Produced
assayValue: 35-50
--
molecule: O=c1ncn2nc(Sc3ccc(F)cc3F)ccc2c1-c1c(Cl)cccc1Cl
reportedProperty: Number of Gigasomes Produced
assayValue: 75-90
--
molecule: COc1cc(O)c2c(c1)oc(=O)c1c3cc(O)c(O)cc3oc21 [Wedelolactone, reference compound]
reportedProperty: Number of Gigasomes Produced
assayValue: <20
--
molecule: CC(N)=NCc1cccc(CN)c1.Cl.Cl [1400W dihydrochloride]
reportedProperty: Number of Gigasomes Produced
assayValue: 50-75

---

- Test system: neuronal cell line derived from human neuroblastoma
- runParameters: human, 24 h, 10 nM

compound: CC(=O)O[C@H]1C(=O)[C@@]2(C)[C@H]([C@H](OC(=O)c3ccccc3)[C@]3(O)C[C@H](OC(=O)[C@H](O)[C@@H](NC(=O)c4ccccc4)c4ccccc4)C(C)=C1C3(C)C)[C@]1(OC(C)=O)CO[C@@H]1C[C@@H]2O
prefixOperator: >
Viability (%): 75
//
compound: Cc1ncc(-c2ccnc(Nc3ccc(S(C)(=O)=O)cc3)n2)n1C(C)C
prefixOperator: =
Viability (%): 100
//
compound: Cn1cncc1[C@@](N)(c1ccc(Cl)cc1)c1ccc2c(c1)c(-c1cccc(Cl)c1)cc(=O)n2C
prefixOperator: >
Viability (%): 75
//
compound: C/C=C1/[C@H](O[C@@H]2O[C@H](CO)[C@@H](O)[C@H](O)[C@H]2O)OC=C(C(=O)OC)[C@H]1CC(=O)OCCc1ccc(O)c(O)c1 [Oleuropein, reference compound]
prefixOperator: =
Viability (%): 100
//
compound: CC(=O)Nc1cccc(-n2c(=O)n(C3CC3)c(=O)c3c(Nc4ccc(I)cc4F)n(C)c(=O)c(C)c32)c1 [Trametinib, reference compound]
prefixOperator: >
Viability (%): 75
//
compound: C=C(C)[C@@H]1CC[C@]2(C(=O)O)CC[C@]3(C)[C@H](CC[C@@H]4[C@@]5(C)CC[C@H](O)C(C)(C)[C@@H]5CC[C@]43C)[C@@H]12
prefixOperator: =
Viability (%): 100
